Biological target: CETP (Homo sapiens (Human), UniProt P11597)
Sequence (P11597 18-493): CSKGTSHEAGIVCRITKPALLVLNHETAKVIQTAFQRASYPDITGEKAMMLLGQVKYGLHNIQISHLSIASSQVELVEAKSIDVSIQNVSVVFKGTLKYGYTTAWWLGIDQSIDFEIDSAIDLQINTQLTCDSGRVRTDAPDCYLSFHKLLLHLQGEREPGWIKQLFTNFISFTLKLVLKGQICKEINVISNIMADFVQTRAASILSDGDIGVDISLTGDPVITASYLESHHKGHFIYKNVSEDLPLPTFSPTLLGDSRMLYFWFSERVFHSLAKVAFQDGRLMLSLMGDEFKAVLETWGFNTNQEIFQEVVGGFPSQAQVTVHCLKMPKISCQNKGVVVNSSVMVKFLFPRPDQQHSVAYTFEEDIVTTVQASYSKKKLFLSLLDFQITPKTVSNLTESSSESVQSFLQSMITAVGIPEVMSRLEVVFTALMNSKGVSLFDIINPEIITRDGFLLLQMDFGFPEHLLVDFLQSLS
Experiment: Test for inhibition of cholesteryl ester transfer (in vitro)
Conditions: human plasma as CETP source, LDL from healthy persons as acceptor, rHDL-agarose donor, 37° C.
Value type: IC50 (nM)

1) COc1ncc(-c2ccc(C(=O)O)cc2C(C)C)cc1C1=C(CN2C(=O)O[C@H](c3cc(C(F)(F)F)cc(C(F)(F)F)c3)[C@@H]2C)CC(C)(C)CC1
12.6

A. COc1cc(F)c(-c2ccc(C(=O)O)cc2Cl)cc1C1=C(CN2C(=O)O[C@H](c3cc(C(F)(F)F)cc(C(F)(F)F)c3)[C@@H]2C)CC(C)(C)CC1
B. COc1cc(C2=C(CN3C(=O)O[C@H](c4cc(C(F)(F)F)cc(C(F)(F)F)c4)[C@@H]3C)CC(C)(C)CC2)cc(-c2ccc(C(=O)O)cc2C)c1
C. COC(=O)c1cccc(-c2ccc(OC)c(C3=C(CN4C(=O)O[C@H](c5cc(C(F)(F)F)cc(C(F)(F)F)c5)[C@@H]4C)CC(C)(C)CC3)c2)c1
Input line: Arrange by IC50, high to low. Write the labels out in the order the request specifies.
Output line: C, B, A
(C: 56.6 nM, B: 24.3 nM, A: 1.9 nM)

// provenance: patent US9493430B2
